Target: T1, human complement C3b protein (human, UniProt P01024 23-667; P01024 749-1663)
T1 construct: Purified plasma C3b (Complement Technology, Quidel); Depending on the assay it was captured by an anti-C3d antibody, coated, biotinylated or coupled to beads; also called human C3b; huC3b
T1 sequence (P01024 23-667 P314L, chain 1 of 2): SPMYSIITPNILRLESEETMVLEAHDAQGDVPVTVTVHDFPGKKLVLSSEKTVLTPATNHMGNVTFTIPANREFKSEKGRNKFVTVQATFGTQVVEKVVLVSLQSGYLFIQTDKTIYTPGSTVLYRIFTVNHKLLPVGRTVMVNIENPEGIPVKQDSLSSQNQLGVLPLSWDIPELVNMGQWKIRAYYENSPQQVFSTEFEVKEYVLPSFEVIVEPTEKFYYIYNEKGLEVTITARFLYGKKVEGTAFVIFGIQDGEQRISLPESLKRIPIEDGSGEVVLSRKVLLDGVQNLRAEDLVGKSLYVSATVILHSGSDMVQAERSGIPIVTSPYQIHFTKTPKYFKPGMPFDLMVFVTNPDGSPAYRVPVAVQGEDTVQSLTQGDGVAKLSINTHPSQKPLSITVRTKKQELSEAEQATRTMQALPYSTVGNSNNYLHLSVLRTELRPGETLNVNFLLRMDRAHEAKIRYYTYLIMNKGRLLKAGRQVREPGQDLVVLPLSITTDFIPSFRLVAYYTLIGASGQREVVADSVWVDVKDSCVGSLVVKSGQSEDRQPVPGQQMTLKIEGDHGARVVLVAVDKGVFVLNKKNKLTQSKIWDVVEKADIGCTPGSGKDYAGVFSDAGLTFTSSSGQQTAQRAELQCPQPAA
T1 sequence (P01024 749-1663, chain 2 of 2): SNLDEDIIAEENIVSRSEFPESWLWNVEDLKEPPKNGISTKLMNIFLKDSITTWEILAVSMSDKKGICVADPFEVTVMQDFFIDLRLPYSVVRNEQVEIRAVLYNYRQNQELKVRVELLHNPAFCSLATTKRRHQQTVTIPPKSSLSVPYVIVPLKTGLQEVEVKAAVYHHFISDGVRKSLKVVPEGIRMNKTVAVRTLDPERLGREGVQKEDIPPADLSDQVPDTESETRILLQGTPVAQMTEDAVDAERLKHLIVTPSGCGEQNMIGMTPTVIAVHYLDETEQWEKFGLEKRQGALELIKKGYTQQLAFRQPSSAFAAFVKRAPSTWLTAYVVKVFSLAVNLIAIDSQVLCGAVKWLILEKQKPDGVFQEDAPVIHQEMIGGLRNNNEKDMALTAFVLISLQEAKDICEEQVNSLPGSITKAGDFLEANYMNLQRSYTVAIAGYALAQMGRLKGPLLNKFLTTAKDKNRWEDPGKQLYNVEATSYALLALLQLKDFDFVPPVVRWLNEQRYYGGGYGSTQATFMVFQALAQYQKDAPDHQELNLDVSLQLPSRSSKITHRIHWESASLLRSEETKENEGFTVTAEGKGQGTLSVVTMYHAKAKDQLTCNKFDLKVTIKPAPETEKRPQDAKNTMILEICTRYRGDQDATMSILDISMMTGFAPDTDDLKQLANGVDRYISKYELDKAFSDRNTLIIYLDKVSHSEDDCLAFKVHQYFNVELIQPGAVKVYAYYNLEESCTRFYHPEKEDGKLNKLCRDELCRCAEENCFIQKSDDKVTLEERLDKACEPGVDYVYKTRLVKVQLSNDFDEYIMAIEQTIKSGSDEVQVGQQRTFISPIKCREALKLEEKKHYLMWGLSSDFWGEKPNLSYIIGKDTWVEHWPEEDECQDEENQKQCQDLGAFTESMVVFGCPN
Assay: bead proximity assay, C3b-acceptor beads; competitor biotinylated fB(D24G/N260D)

# BINDER, IC50 / nM
data = [
    ("MOR09124 Fab (Fab, V domains shown, HCDR2-matured derivative of parental MOR08305) VH: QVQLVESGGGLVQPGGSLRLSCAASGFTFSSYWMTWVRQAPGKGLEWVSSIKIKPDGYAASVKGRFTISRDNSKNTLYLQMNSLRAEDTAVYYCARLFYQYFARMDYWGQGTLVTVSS VL: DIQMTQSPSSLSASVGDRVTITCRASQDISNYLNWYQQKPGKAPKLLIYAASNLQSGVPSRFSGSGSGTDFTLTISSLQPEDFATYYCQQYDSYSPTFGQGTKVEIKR", 3),
    ("MOR09423 Fab (Fab, V domains shown, also called Fab 9423) VH: QVQLVQSGAEVKKPGASVKVSCKASGYTFTGYYINWVRQAPGQGLEWMGIISPNQGTTGYAQKFQGRVTMTRDTSISTAYMELSSLRSEDTAVYYCARGNYDHLDYWGQGTLVTVSS VL: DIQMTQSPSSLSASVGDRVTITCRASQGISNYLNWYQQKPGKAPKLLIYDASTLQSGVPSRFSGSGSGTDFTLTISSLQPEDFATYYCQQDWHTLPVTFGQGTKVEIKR", 0.2),
    ("MOR09398 Fab (Fab, V domains shown, also called Fab 9398) VH: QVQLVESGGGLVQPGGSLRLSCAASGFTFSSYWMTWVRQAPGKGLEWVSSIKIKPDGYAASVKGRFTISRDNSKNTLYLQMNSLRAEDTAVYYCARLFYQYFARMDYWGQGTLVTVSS VL: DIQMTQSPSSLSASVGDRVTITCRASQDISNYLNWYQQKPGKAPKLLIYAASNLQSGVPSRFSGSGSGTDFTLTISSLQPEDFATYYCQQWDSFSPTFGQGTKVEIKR", 0.1),
]
